Target: human insulin-like growth factor-I (IGF-I) (human, UniProt P05019 49-118)
Experiment: cell-based or functional assay
result-type: % MAX Activation, mean (n = 2), IGF-I pTYR of hIGF-IR in NIH3T3 cells
# output: number + unit

In one line, give reported % MAX Activation, mean (n = 2), IGF-I pTYR of hIGF-IR in NIH3T3 cells of the entry mAb 7.251.3 (antibody, V domains shown, Fully human XenoMouse hybridoma mAb, lambda light chain (V1-13/JL2); also called ATCC PTA-7422) VH: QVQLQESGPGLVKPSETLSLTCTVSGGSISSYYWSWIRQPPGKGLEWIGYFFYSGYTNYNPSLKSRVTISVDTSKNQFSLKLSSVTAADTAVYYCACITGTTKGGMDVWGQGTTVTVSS VL: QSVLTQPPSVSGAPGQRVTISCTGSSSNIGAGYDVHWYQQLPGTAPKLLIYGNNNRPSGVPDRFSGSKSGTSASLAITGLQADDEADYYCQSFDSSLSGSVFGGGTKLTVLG .
16.9%
